Consider the following binders and their measured kon readings.
Molecular target: T1, recombinant human PD-L1 His protein (human, UniProt Q9NZQ7 19-239)
T1 construct: not shown: His tag
T1 sequence (Q9NZQ7 19-239 limits assumed): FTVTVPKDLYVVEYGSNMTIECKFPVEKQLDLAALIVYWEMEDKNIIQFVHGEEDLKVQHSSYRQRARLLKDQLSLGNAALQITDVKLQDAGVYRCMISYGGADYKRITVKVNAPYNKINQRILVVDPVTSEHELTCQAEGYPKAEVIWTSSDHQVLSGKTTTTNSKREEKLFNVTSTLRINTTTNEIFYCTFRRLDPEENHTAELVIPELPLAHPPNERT
Experiment: SPR Biacore T200, PD-L1 His on chip, sdAb analyte
Method: Affinity constant (Kd) of each sdAb and HCAb was determined by surface plasmon resonance (SPR) on a BIAcore T200 instrument. Briefly, PD-L1 His was amine-coupled to a CMS sensor chip at a density of no higher than 100 RU. […] Flow rate was 30 μl/min in all experiments. Association and dissociation phases were 5 and 10 min, respectively. The chip was regenerated using Glycine/HCl pH 1.5. […]
Express it in M⁻¹ s⁻¹; write the number only.

* AS06778 sdAb (VHH, His6-tagged llama sdAb) VHH: QVQLVESGGGLVQAGGSLKLSCAASGRTFITYAMGWFRQAPGKERELVAAISWSGSSTYSADSVKGRFTISRDNAKNTVYLQMNSLKPEDTAVYYCAAEVSARTGEHLPKLMGDYWGQGTQVTVSS | 1.9e+06

Alright, here's another binder for you.
Q. Give its kon value. Item: AS12003 sdAb (VHH, His6-tagged llama sdAb) VHH: EVQLVESGGGLVQAGDSLRLSCAASGRTFLSYAVGWFRQAPGTEREFVAGIRWSGGSTDYADSVKGRFTISRDNAKNTVYLQMNSLKPEDTAVYYCAAHRTIATVPNKYEYDTWGQGTQVTVSS
A. 2.76e+06

Where do the numbers come from? From patent US20240101716A1.
